System: Rhizopus arrhizus
experiment_summary: Antifungal activity against Rhizopus oryzae at 100 ug
Format: functional
stated_conditions: read-out: DIZ
Tick TRUE if zone of inhibition at 100 µg/disc is 10 mm or greater. Tick FALSE if zone of inhibition at 100 µg/disc is less than 10 mm.

{"structure_smiles_string": "C[C@@H]1[C@H](O)[C@@H](C)/C=C/C=C/C=C/C=C/C=C/C=C/C=C/[C@H](O[C@@H]2O[C@H](C)[C@@H](O)[C@H](N)[C@@H]2O)C[C@@H]2O[C@](O)(C[C@@H](O)C[C@@H](O)[C@H](O)CC[C@@H](O)C[C@@H](O)CC(=O)O[C@H]1C)C[C@H](O)[C@H]2C(=O)O", "class_label": "TRUE"}
{"structure_smiles_string": "Cc1cnc(Cl)c(/C=C/CO)c1", "class_label": "TRUE"}
{"structure_smiles_string": "CC(=O)/C=C/c1cc(C)cnc1Cl", "class_label": "TRUE"}
{"structure_smiles_string": "CC(=O)/C=C\\c1cc(C)cnc1Cl", "class_label": "TRUE"}
{"structure_smiles_string": "Cc1cnc(Cl)c(/C=C\\CO)c1", "class_label": "TRUE"}
{"structure_smiles_string": "Cc1cnc(Cl)c(/C=C\\C#N)c1", "class_label": "FALSE"}

###

Tested on: Bacillus subtilis
experiment_summary: Antibacterial activity against Bacillus subtilis MTCC 441 by broth dilution method
Type: functional

{"compound": "CC1(C)S[C@@H]2[C@H](NC(=O)Cc3ccccc3)C(=O)N2[C@H]1C(=O)O [PENICILLIN G]", "MIC": "1.56 µg/mL"}
{"compound": "Cc1cnc(Cl)c(/C=C\\CO)c1", "MIC": "37.5 µg/mL"}
{"compound": "CC(=O)/C=C/c1cc(C)cnc1Cl", "MIC": "37.5 µg/mL"}
{"compound": "COC(=O)/C=C\\c1cc(C)cnc1Cl", "MIC": "37.5 µg/mL"}
{"compound": "Cc1cnc(Cl)c(/C=C/CO)c1", "MIC": "37.5 µg/mL"}

###

System: Pseudomonas aeruginosa
experiment_summary: Antibacterial activity against Pseudomonas aeruginosa MTCC 741 by broth dilution method
Format: functional
MIC for assorted compounds
measured_metric: MIC (µg/mL)

{"structure_smiles_string": "Cc1cnc(Cl)c(/C=C\\C#N)c1", "test_value": 75}
{"structure_smiles_string": "CC1(C)S[C@@H]2[C@H](NC(=O)Cc3ccccc3)C(=O)N2[C@H]1C(=O)O", "test_value": 12.5}
{"structure_smiles_string": "CC(=O)/C=C\\c1cc(C)cnc1Cl", "test_value": 37.5}
{"structure_smiles_string": "CC(=O)/C=C/c1cc(C)cnc1Cl", "test_value": 75}
{"structure_smiles_string": "Cc1cnc(Cl)c(/C=C/CO)c1", "test_value": 37.5}
{"structure_smiles_string": "Cc1cnc(Cl)c(/C=C/C#N)c1", "test_value": 75}
{"structure_smiles_string": "COC(=O)/C=C\\c1cc(C)cnc1Cl", "test_value": 37.5}
{"structure_smiles_string": "Cc1cnc(Cl)c(/C=C\\CO)c1", "test_value": 75}
{"structure_smiles_string": "CN[C@@H]1[C@H](O[C@H]2[C@H](O[C@H]3[C@H](O)[C@@H](O)[C@H](N=C(N)N)[C@@H](O)[C@@H]3N=C(N)N)O[C@@H](C)[C@]2(O)C=O)O[C@@H](CO)[C@H](O)[C@H]1O", "test_value": 3.12}
{"structure_smiles_string": "COC(=O)/C=C/c1cc(C)cnc1Cl", "test_value": 75}

###

Tested on: Aspergillus niger
experiment_summary: Antifungal activity against Aspergillus niger at 100 ug
Assay type: functional
stated_conditions: read-out: DIZ
zone of inhibition at 100 µg/disc for assorted compounds

{"structure_smiles_string": "COC(=O)/C=C\\c1cc(C)cnc1Cl", "zone of inhibition at 100 µg/disc, mm": 14}
{"structure_smiles_string": "CC(=O)/C=C\\c1cc(C)cnc1Cl", "zone of inhibition at 100 µg/disc, mm": 14}
{"structure_smiles_string": "COC(=O)/C=C/c1cc(C)cnc1Cl", "zone of inhibition at 100 µg/disc, mm": 16}
{"structure_smiles_string": "Cc1cnc(Cl)c(/C=C/CO)c1", "zone of inhibition at 100 µg/disc, mm": 14}
{"structure_smiles_string": "CC(=O)/C=C/c1cc(C)cnc1Cl", "zone of inhibition at 100 µg/disc, mm": 13}
{"structure_smiles_string": "C[C@@H]1[C@H](O)[C@@H](C)/C=C/C=C/C=C/C=C/C=C/C=C/C=C/[C@H](O[C@@H]2O[C@H](C)[C@@H](O)[C@H](N)[C@@H]2O)C[C@@H]2O[C@](O)(C[C@@H](O)C[C@@H](O)[C@H](O)CC[C@@H](O)C[C@@H](O)CC(=O)O[C@H]1C)C[C@H](O)[C@H]2C(=O)O", "zone of inhibition at 100 µg/disc, mm": 26}
{"structure_smiles_string": "Cc1cnc(Cl)c(/C=C\\CO)c1", "zone of inhibition at 100 µg/disc, mm": 12}
{"structure_smiles_string": "Cc1cnc(Cl)c(/C=C/C#N)c1", "zone of inhibition at 100 µg/disc, mm": 13}
{"structure_smiles_string": "Cc1cnc(Cl)c(/C=C\\C#N)c1", "zone of inhibition at 100 µg/disc, mm": 9}

###

zone of inhibition at 100 µg/disc for assorted compounds
System: Candida albicans
experiment_summary: Antifungal activity against Candida albicans at 100 ug
Assay type: functional
stated_conditions: read-out: DIZ

{"compound": "Cc1cnc(Cl)c(/C=C\\CO)c1", "tested_target": "Candida albicans", "zone of inhibition at 100 µg/disc [mm]": 11}
{"compound": "C[C@@H]1[C@H](O)[C@@H](C)/C=C/C=C/C=C/C=C/C=C/C=C/C=C/[C@H](O[C@@H]2O[C@H](C)[C@@H](O)[C@H](N)[C@@H]2O)C[C@@H]2O[C@](O)(C[C@@H](O)C[C@@H](O)[C@H](O)CC[C@@H](O)C[C@@H](O)CC(=O)O[C@H]1C)C[C@H](O)[C@H]2C(=O)O [AMPHOTERICIN B]", "tested_target": "Candida albicans", "zone of inhibition at 100 µg/disc [mm]": 23.5}
{"compound": "CC(=O)/C=C/c1cc(C)cnc1Cl", "tested_target": "Candida albicans", "zone of inhibition at 100 µg/disc [mm]": 13}
{"compound": "Cc1cnc(Cl)c(/C=C/C#N)c1", "tested_target": "Candida albicans", "zone of inhibition at 100 µg/disc [mm]": 10}
{"compound": "Cc1cnc(Cl)c(/C=C/CO)c1", "tested_target": "Candida albicans", "zone of inhibition at 100 µg/disc [mm]": 13}
{"compound": "COC(=O)/C=C/c1cc(C)cnc1Cl", "tested_target": "Candida albicans", "zone of inhibition at 100 µg/disc [mm]": 8}
{"compound": "CC(=O)/C=C\\c1cc(C)cnc1Cl", "tested_target": "Candida albicans", "zone of inhibition at 100 µg/disc [mm]": 9}
{"compound": "COC(=O)/C=C\\c1cc(C)cnc1Cl", "tested_target": "Candida albicans", "zone of inhibition at 100 µg/disc [mm]": 11}

###

Test system: Rhizopus arrhizus
experiment_summary: Antifungal activity against Rhizopus oryzae at 100 ug
Assay type: functional
stated_conditions: read-out: DIZ

{"structure_smiles_string": "COC(=O)/C=C/c1cc(C)cnc1Cl", "tested_target": "Rhizopus arrhizus", "units_symbol": "mm", "zone of inhibition at 100 µg/disc": 10}
{"structure_smiles_string": "COC(=O)/C=C\\c1cc(C)cnc1Cl", "tested_target": "Rhizopus arrhizus", "units_symbol": "mm", "zone of inhibition at 100 µg/disc": 10}
{"structure_smiles_string": "Cc1cnc(Cl)c(/C=C/C#N)c1", "tested_target": "Rhizopus arrhizus", "units_symbol": "mm", "zone of inhibition at 100 µg/disc": 10}
